// data source = patent US9994554B2

Could you please report measured IC50 for the items listed next?
System: NCI-H1299
method-description: NCI-H1299 resazurin cell assay (Example 14)
Assay type: cell-based
condition-info: Homo sapiens, read-out: Lung - Non small cell lung carcinoma NCI-H1299 pXC50 (converted)

Worked set:
CCN1C(=O)C(=C/C=C/c2ccccc2)C(=O)N(CC)C1=S
10 to 31.6 µM
O=C1NC(=O)C(=C/C=C/c2ccco2)C(=O)N1
1 to 10 µM
CCN1C(=O)NC(=O)/C(=C\C=C\c2ccco2)C1=O
1 to 10 µM
CCN1C(=O)C(=C/C=C/c2ccco2)C(=O)N(CC)C1=O
1 to 10 µM
O=C1NC(=S)NC(=O)C1=C/C=C/c1ccco1
1 to 10 µM

Exercise: Would you kindly share the measured IC50 for Cn1nnc2c(C(N)=O)ncn2c1=O [Temodar ®, Temozolomide, reference compound] ?
Key: > 100 µM

---

Test system: OVCAR-3
method-description: Cytotoxicity, ovarian cancer cells
Format: cell-based
condition-info: OVCAR-3; human ovarian carcinoma cell line
Procedure: To assess the effect of CC-I on the ovarian cancer cells, the cells were cultured overnight at a density of 5,000 to 10,000 cells per well in 96 well plates. Then the cells were treated with different concentrations of CC-I (Formula IV) or Formula V for another 3-6 days before cytotoxicity assay using MTS or SRB assay. The IC50 or LD50, 50% inhibition or lethal dose, of compounds is also determined using statistical software (GraphPad) as a general indicator of toxicity.
endpoint-name: IC50
// return the numeric value with its unit appended

Exercise: I'd like to know its IC50. The compound in question is O=C1NC(=S)NC(=O)C1=C/C=C/c1ccccc1
Key: 4.3 µM

---

System: CCF-STTG1
method-description: cells
condition-info: Homo sapiens, CCF-STTG1, read-out: IC50 (μM) CCF-STTG1
For each entry below, report its IC50 value.
Answers are plain numbers, in µM.

O=C1NC(=S)NC(=O)C1=C/C=C/c1ccccc1
3

Please examine the following record next.
Exercise: Look up IC50: Cn1nnc2c(C(N)=O)ncn2c1=O [Temodar ®, Temozolomide, reference compound]
Key: 306

---

System: U87-MG
method-description: cells
condition-info: read-out: IC50 (μM) U87-MG; human astrocytoma or glioblastoma cell line
Experimental: Human neuroblastoma cell lines were cultured in Dulbecco's Modified Eagle Medium (DMEM)/F12 media. Human glioma cells were ordered from American Type Culture Collection (ATCC, Manassas, Va.), and maintained in DMEM with 4×10^−3M L-glutamine, 100 U/ml penicillin, 100 μg/ml streptomycin, and 10% fetal bovine serum (FBS). […] Cell cytotoxicity assay was determined by MTS [3-(4,5-dimethylthiazol-2-yl)-5-(3-carboxymethoxyphenyl)-2-(4-sulfophenyl)-2H-tetrazolium, inner salt] […]
endpoint-name: IC50 (µM)
One number for each entry, in µM.

Exercise: IC50 lookup needed for CCN1C(=O)C(=C/C=C/c2ccco2)C(=O)NC1=S , thanks.
Key: 3.9

---

System: SW1088
method-description: Cytotoxicity (MTS or SRB assay), SW1088
Format: cell-based, human
condition-info: SW1088; human astrocytoma or glioblastoma cell line; read-out: IC50 (μM) SW1088
endpoint-name: IC50 (µM)
One number for each entry, in µM.

Exercise: Reported IC50 for Cn1nnc2c(C(N)=O)ncn2c1=O [Temodar ®, Temozolomide, reference compound] : what is it?
Key: 29.5

---

Test system: MCF7
method-description: Cytotoxicity, MCF7
Type: cell-based
condition-info: human breast adenocarcinoma cell line
endpoint-name: IC50 (µM)
Answers are plain numbers, in µM.

Exercise: Give its IC50 value. Item: CCN1C(=O)C(=C/C=C/c2ccco2)C(=O)NC1=S
Key: 15.6

---

System: MCF7
method-description: Cytotoxicity, MCF7
Assay type: cell-based
condition-info: MCF7; human breast adenocarcinoma cell line
endpoint-name: IC50

Exercise: What does the data say about its IC50? Entry: O=C1NC(=S)NC(=O)C1=C/C=C/c1ccccc1
Key: 3.2 µM

---

Test system: U87-MG cells
method-description: U87-MG resazurin cell assay (Example 13)
Assay type: cell-based
condition-info: Homo sapiens, U-87 MG; read-out: Brain - Glioblastoma U87 pXC50 (converted)
endpoint-name: IC50

O=C1NC(=O)C(=C/C=C/c2ccco2)C(=O)N1
10 to 31.6 µM
CCN1C(=O)NC(=O)/C(=C\C=C\c2ccco2)C1=O
10 to 31.6 µM

Proceeding to the next compound to report its IC50.
Exercise: Field request: IC50 | item: CCN1C(=O)C(=C/C=C/c2ccccc2)C(=O)N(CC)C1=S
Key: 31.6 to 100 µM

---

For each of the compounds below, state its IC50.
Test system: WT/SH-SY5Y
method-description: Cytotoxicity, WT/SH-SY5Y neuroblastoma
Assay type: cell-based
condition-info: wild type HFE transfected human neuroblastoma SH-SY5Y
Numbers only, in µM.

CCN1C(=O)C(=C/C=C/c2ccco2)C(=O)NC1=S
3.3

Exercise: Suppose we examine the compound Cn1nnc2c(C(N)=O)ncn2c1=O [Temodar ®, Temozolomide, reference compound] ; what IC50 value has been reported?
Key: 103

---

Kindly state IC50 for each of the entries shown.
Tested on: U87-MG cells
method-description: U87-MG resazurin cell assay (Example 13)
Format: cell-based
condition-info: Homo sapiens, U-87 MG; read-out: Brain - Glioblastoma U87 pXC50 (converted)
Experimental: U87-MG cells were obtained from the ATCC, LGC Standards (#HTB-14). […] After 5 days (120 hrs) incubation at 37° C. under 5% CO2 in a humidified incubator, the assay was “stopped” by addition of Resazurin sodium salt at 0.5 mM final concentration (Sigma R7017). The plates were incubated for a further 4 hrs before resorufin readout was taken from a Perkin Elmer EnVision, 550 nm excitation (photo550, Barcode 312), 580 nm emission (M580, Barcode 233), Top Mirror BODIPY (D555, Barcode 405).

Past entries and their recorded results:
Cn1nnc2c(C(N)=O)ncn2c1=O [Temodar ®, Temozolomide, reference compound]
10 to 31.6 µM
CCN1C(=O)C(=C/C=C/c2ccco2)C(=O)N(CC)C1=O
31.6 to 100 µM
CCN1C(=O)C(=C/C=C/c2ccccc2)C(=O)N(CC)C1=O
1 to 10 µM

Please look at the items below and tell me IC50 for each one, in order.
1. CCN1C(=O)NC(=O)/C(=C\C=C\c2ccccc2)C1=O
2. O=C1NC(=S)NC(=O)C1=C/C=C/c1ccco1

Key:
1 to 10 µM
10 to 31.6 µM
